Reference for the values: the NIST ThermoML archive (doi:10.1021/je201310d)

activity coefficient listing for selected compounds.
# Experiment Description: activity coefficient (dimensionless); of the first substance listed, at infinite dilution; xn = mol fraction of the nth substance listed
# Details: 363.15 K; 101 kPa; Liquid; Chromatography; x1 = 0

Compound	activity coefficient
c1ccccc1 [benzene] + CCCCOP(=O)([O-])OCCCC.CCCCn1cc[n+](C)c1	0.85
CCCCC [pentane] + CCCCOP(=O)([O-])OCCCC.CCCCn1cc[n+](C)c1	3.72
CCCCCCC [heptane] + CCCCOP(=O)([O-])OCCCC.CCCCn1cc[n+](C)c1	5.05
Cc1ccccc1 [toluene] + CCCCOP(=O)([O-])OCCCC.CCCCn1cc[n+](C)c1	1.27
Cc1ccc(C)cc1 [1,4-dimethylbenzene] + CCCCOP(=O)([O-])OCCCC.CCCCn1cc[n+](C)c1	1.72
CC(C)CC(C)(C)C [2,2,4-trimethylpentane] + CCCCOP(=O)([O-])OCCCC.CCCCn1cc[n+](C)c1	5.88
CC1CCCCC1 [methylcyclohexane] + CCCCOP(=O)([O-])OCCCC.CCCCn1cc[n+](C)c1	3.35
CCCCCC [hexane] + CCCCOP(=O)([O-])OCCCC.CCCCn1cc[n+](C)c1	4.24
CCCCCCCCC [nonane] + CCCCOP(=O)([O-])OCCCC.CCCCn1cc[n+](C)c1	6.88
Cc1cccc(C)c1 [1,3-dimethylbenzene] + CCCCOP(=O)([O-])OCCCC.CCCCn1cc[n+](C)c1	1.83
CCCCCCCCCC [decane] + CCCCOP(=O)([O-])OCCCC.CCCCn1cc[n+](C)c1	8.25
C1=CCCCC1 [cyclohexene] + CCCCOP(=O)([O-])OCCCC.CCCCn1cc[n+](C)c1	1.96
CCCCCCCC [octane] + CCCCOP(=O)([O-])OCCCC.CCCCn1cc[n+](C)c1	6.15
C=Cc1ccccc1 [styrene] + CCCCOP(=O)([O-])OCCCC.CCCCn1cc[n+](C)c1	0.98
Cc1ccccc1C [1,2-dimethylbenzene] + CCCCOP(=O)([O-])OCCCC.CCCCn1cc[n+](C)c1	1.65
C1CCCCC1 [cyclohexane] + CCCCOP(=O)([O-])OCCCC.CCCCn1cc[n+](C)c1	2.59

###

# Experiment Description: activity coefficient (dimensionless); of the first substance listed, at infinite dilution; xn = mol fraction of the nth substance listed
# Details: 323.15 K; 101 kPa; Liquid; Chromatography; x1 = 0
activity coefficient listing for selected compounds.

Compound	activity coefficient
Cc1ccccc1C [1,2-dimethylbenzene] + CCCCOP(=O)([O-])OCCCC.CCCCn1cc[n+](C)c1	1.77
CC1CCCCC1 [methylcyclohexane] + CCCCOP(=O)([O-])OCCCC.CCCCn1cc[n+](C)c1	3.61
CC(C)CC(C)(C)C [2,2,4-trimethylpentane] + CCCCOP(=O)([O-])OCCCC.CCCCn1cc[n+](C)c1	6.12
Cc1cccc(C)c1 [1,3-dimethylbenzene] + CCCCOP(=O)([O-])OCCCC.CCCCn1cc[n+](C)c1	1.95
c1ccccc1 [benzene] + CCCCOP(=O)([O-])OCCCC.CCCCn1cc[n+](C)c1	0.97
CCCCCCCCCC [decane] + CCCCOP(=O)([O-])OCCCC.CCCCn1cc[n+](C)c1	9.65
CCCCCC [hexane] + CCCCOP(=O)([O-])OCCCC.CCCCn1cc[n+](C)c1	4.63
C=Cc1ccccc1 [styrene] + CCCCOP(=O)([O-])OCCCC.CCCCn1cc[n+](C)c1	1.15
CCCCCCC [heptane] + CCCCOP(=O)([O-])OCCCC.CCCCn1cc[n+](C)c1	5.38
CCCCCCCC [octane] + CCCCOP(=O)([O-])OCCCC.CCCCn1cc[n+](C)c1	6.43
C1=CCCCC1 [cyclohexene] + CCCCOP(=O)([O-])OCCCC.CCCCn1cc[n+](C)c1	2.15
C1CCCCC1 [cyclohexane] + CCCCOP(=O)([O-])OCCCC.CCCCn1cc[n+](C)c1	2.99
CCCCCCCCC [nonane] + CCCCOP(=O)([O-])OCCCC.CCCCn1cc[n+](C)c1	7.47
Cc1ccccc1 [toluene] + CCCCOP(=O)([O-])OCCCC.CCCCn1cc[n+](C)c1	1.35
Cc1ccc(C)cc1 [1,4-dimethylbenzene] + CCCCOP(=O)([O-])OCCCC.CCCCn1cc[n+](C)c1	1.86
CCCCC [pentane] + CCCCOP(=O)([O-])OCCCC.CCCCn1cc[n+](C)c1	4.05
